These measurements were taken from patent US20200317776A1.

Molecular target: human TREM2/DAP12 fusion protein (human, UniProt O43914 41-113, limits assumed)
Sequence (O43914 other isoform, or with tags, fused parts or gaps limits assumed): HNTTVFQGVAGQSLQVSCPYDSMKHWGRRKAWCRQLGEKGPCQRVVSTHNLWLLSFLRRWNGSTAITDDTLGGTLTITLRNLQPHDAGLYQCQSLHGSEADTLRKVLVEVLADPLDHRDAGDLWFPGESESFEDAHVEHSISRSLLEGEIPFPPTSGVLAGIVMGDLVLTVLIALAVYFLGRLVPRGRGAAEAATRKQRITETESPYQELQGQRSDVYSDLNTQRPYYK
Test: cell-based or functional assay
metric_name: BW Luc assay plate bound 7.3 nM IgG, FOC (FOC)
Value expressed in FOC; do not type the unit.

AL2p-31 (antibody, V domains shown, Fab and IgG formats under one id) VH: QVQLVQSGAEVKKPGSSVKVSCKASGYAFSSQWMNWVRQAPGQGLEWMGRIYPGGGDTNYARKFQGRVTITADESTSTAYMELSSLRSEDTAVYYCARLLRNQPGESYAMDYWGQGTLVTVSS VL: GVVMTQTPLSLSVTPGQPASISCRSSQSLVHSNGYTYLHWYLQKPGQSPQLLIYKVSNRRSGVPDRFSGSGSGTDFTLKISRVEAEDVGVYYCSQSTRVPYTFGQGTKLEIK: 7.49
AL2p-39 (antibody, V domains shown, Fab and IgG formats under one id) VH: QVQLVQSGAEVKKPGSSVKVSCKASGYAFSSHWMNWVRQAPGQGLEWMGRIYPGGGDTNYAQKFRGRVTITADESTSTAYMELSSLRSEDTAVYYCARLLRNQPGASYAMDYWGQGTLVTVSS VL: GVVMTQTPLSLSVTPGQPASISCRSSRSLVHSNQYTYLHWYLQKPGQSPQLLIYKVSNRRSGVPDRFSGSGSGTDFTLKISRVEAEDVGVYYCSQSTRVPYTFGQGTKLEIK: 8.12

Recorded BW Luc assay plate bound 7.3 nM IgG, FOC for AL2p-38 (antibody, V domains shown, Fab and IgG formats under one id) VH: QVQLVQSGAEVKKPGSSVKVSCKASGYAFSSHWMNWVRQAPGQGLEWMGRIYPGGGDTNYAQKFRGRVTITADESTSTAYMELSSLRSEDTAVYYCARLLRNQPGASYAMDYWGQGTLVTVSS VL: GVVMTQTPLSLSVTPGQPASISCRSSRSLVHSNRYTYLHWYLQKPGQSPQLLIYKVSNRRSGVPDRFSGSGSGTDFTLKISRVEAEDVGVYYCSQSTRVPYTFGQGTKLEIK , please?
4.47
